Test system: MIA PaCa-2 cells
TEST DESCRIPTION: In-vitro anti-proliferative activity in combination with gemcitabine on MIA PaCa-2 cells
Format: cell-based
COND: 72 h, with 20 nM gemcitabine, read-out: in combination with 20 nM GMC IC50
PROPERTY MEASURED: IC50

Solved cases (2 shown):
CN1CCc2ccc(Nc3ncc(-c4ccco4)c(Nc4cccc(N=S(C)(C)=O)n4)n3)cc2C1    > 100 nM
CN1CCc2ccc(Nc3ncc(C#N)c(-c4c[nH]c5c(N=S(C)(C)=O)cccc45)n3)cc2C1    > 100 nM

Here's the next entry for you.
Field IC50 (system: MIA PaCa-2 cells) for entry CN1CCc2ccc(Nc3nccc(Nc4cccc(N=S(C)(C)=O)n4)n3)cc2C1 = > 100 nM
